# Target or system: T1, Soluble CTLA-4-Ig (human, UniProt P16410 36-161, FITC-conjugated in the two-colour FACS assays; unlabelled and detected with FITC goat anti-human IgG in the concentration-dependent assay)
# T1 construct: extracellular domain; Bought from R&D Systems; also called sCTLA-4-Ig; CTLA-4-Ig Fc; not shown: Fc portion of human IgG1
# T1 sequence (P16410 36-161): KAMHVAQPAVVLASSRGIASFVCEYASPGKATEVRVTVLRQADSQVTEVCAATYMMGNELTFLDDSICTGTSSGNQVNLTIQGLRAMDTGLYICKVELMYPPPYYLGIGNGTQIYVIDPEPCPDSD
# Test summary: two-colour FACS profile on transfected cells; score of preference for CTLA-4-Ig over CD28-Ig vs WT hB7-1
Property measured: Binding Score
Answer field: number only, no words.

// known answers, use as guide
>  <Binder>
Round 2 CTLA4BP 5x4-a1 (ligand) VIHVTKEVKEVATLSCGHNVSVEELAQTRIYWQKEKKMVLTMMSGDMNIWPEHKNRTIFDITNNLSIVILALRPSDEGTYECVVLKYEKDAFKREHLAEVTLSVKADFPTPSITDFEIPTSNIRRIICSTSGGFPEPHLSWLENGEELNAINTTVSQDPGTELYTVSSKLDFNMTTNRSFVCLIKYGHLRVNQTFNWNTPKQEHFPDNLLPSWAITLISVNGIFVICCLTYCFAPRCRERRRNERLRRESVRPV

>  <Property measured>
Binding Score

>  <Test result>
0

$$$$
>  <Binder>
Round 2 CTLA4BP-5x4-11d (ligand) VIHVTKEVKEVATLSCGLNVSVEELAQTRIHWQKEKKMVLTMMSGDMNIWPEYKNRTIFDITNNLSIVILALRPSDEGTYECVVLKYDKDAFKREHLAEVTLSVKADFPTPSISDFEIPPSNIRRIICSTSGGFPEPHLSWLENGEELNAINTTVSQDPETELYTVSSKLDFNMTANHSFVCLIKYGHLRVNQTFNWNTPKQEHFPDNLLPSWAITLISVNGIFVICCLTYRFAPRCRERKSNERLRRESVRPV

>  <Property measured>
Binding Score

>  <Test result>
2

$$$$

For Round 2 CTLA4BP 2x1-c4 (ligand) VIHVTKEVKEVATLPCGHNVSVEELAQTRIHWQKEKKMVLTMMSGDMNIWPEYKNRTIFDITNNLSIVILALRPSDEGTYECVVLKYEKDAFKREHLAEVMLSVKADFPTPSITDFEIPPSNIRRIICSTSGGFPEPHLFWLENGEELNAINTTVSQDPGTELYAVSSKLDFNMTTNHNFMCLIKYGHLRVNQTFNWNTPKQEHFPDNLLPSWAITLISVNGIFVICCLTYCFAPRCRERRRNERLRRESVRPV , what is its reported Binding Score?
1

For Round 2 CTLA4BP 2x1-g8 (ligand) VIHVTKEVKEVATLSCGHNVSVEELAQTRIHWQKEKKMVLTMMSGDMNIWPEYKNRTIFDITNNLSVVILALRPSDEGTYECVVLKYEKDAFKREHLAEVTLSVKADFPTPSITDFEIPPSNIRRIICSTSGGFPEPHLSWLENGEELNAINTTVSQDPGTELYTVSSKLDFNMTTNRSFVCLIKYGHLRVNQTFNWNTPKQEHFPDNLLPSWAITLISVNGIFVICCLTYCFAPRCRERKSNERLRRESVRPV , what is its reported Binding Score?
1

For Round 2 CTLA4BP 2x1-e2 (ligand) VIHVTKEVKEVATLSCGHNVSDEELAQTRIHWQKEKKMVLTMMSGDMNIWPEYKNRTIFDITNNLSIVILALRPSDEGTYECVVLKYEKDAFKREHLAEVTLSVKADFPTPSISDFEIPPSNIRRIICSTSGGFPEPHLSWLENGEELNAINTTVSQDPGTELYTVSSKLDFNMTTNHSFMCLIKYGHLRVNQTFNWNTPKQEHFPDNLLPSAITLISANGIFVICCLTYCFAPRCRERRRNERLRRESIHPV , what is its reported Binding Score?
1
